Origin of the recorded values: PubChem BioAssay (NCI)

Below, each entry is listed alongside its reported TGI.
tested on: HOP-18 NSCLC; test: NCI tumour cell line growth inhibition, 48 h
RECORDED ENDPOINT: TGI

[[record]]
compound = "N/C(=C\\c1ccc(OCc2ccccc2)c(OCc2ccccc2)c1[N+](=O)[O-])C(=O)O"
result = "> 100 µM"

[[record]]
compound = "COC(=O)N1CCc2c(nc(N(C)CCO)[nH]c2=O)C1"
result = "> 100 µM"

[[record]]
compound = "CC1(CO)OC(n2cc(C(=O)NC(=O)OCc3ccccc3)c(=O)[nH]c2=O)CC1O (centres undefined)"
result = "> 100 µM"

[[record]]
compound = "NC(=O)C(N)=O"
result = "> 100 µM"

[[record]]
compound = "Cc1ccccc1C(=O)c1ccccc1O"
result = "> 100 µM"

[[record]]
compound = "CCOC(=O)N1CCc2cc(OC)c(OC)c3c2c1cc1cc(OC)c(OC)cc13"
result = "> 100 µM"

[[record]]
compound = "Oc1cc(O)c2c(-c3c(O)c(-c4ccc(O)c(O)c4)[o+]c4cc(O)cc(O)c34)c(O)c(-c3ccc(O)c(O)c3)[o+]c2c1"
result = "36.4 µM"

[[record]]
compound = "N#CN=C(N)NC(=O)/C=C/C=C/c1ccc(Cl)cc1"
result = "> 100 µM"

[[record]]
compound = "CCCCCC/C=C1\\CCC(CN2CCCC2)C1=O (centres undefined)"
result = "32.9 µM"

